- Test Protocol: Toxicity liver stage against HepG2, at 10uM
- Format: cell-based
- Design: test concentration 10 uM, cell line HepG2-A16-CD81EGFP
- Applied Conditions: human, HepG2-A16-CD81EGFP cells; read-out: INHIBITION
Exercise: state measured cytotoxicity at 10 µM for each of the compounds provided.
Give bare numbers, in %.

Cc1cc(C)c(CNC(=O)NCc2nnc3n2CCC3)c(=O)[nH]1: 22.1
COc1ccc2oc(C(C)NC(=O)NC3CCN(C)CC3)c(C)c2c1 (centres undefined): 2.62
COCCC(=O)N1CCC2(CC1)CN(C(C)=O)Cc1ccccc1O2: 0.245
COc1ccccc1COCC(O)CN1CC(n2cccn2)C1 (centres undefined): -6.25
CC(C)Cc1nc(CN(C)CCOc2ccccc2F)no1: -0.731
CS(=O)(=O)c1cnc(C2CCCC2)nc1C1CCCNC1 (centres undefined): -6.35
Cc1nn(C(=O)c2cccnc2)c(C)c1C: -8.62
Cc1cc(C2CCCN(C(=O)c3c(C)noc3C)C2)n[nH]1 (centres undefined): -6.63
CCC1(C)Cc2ccccc2-c2nc(NCCO)nc(O)c21 (centres undefined): 4.1
CN(C)CCn1c2c(ccc1=O)CC(NC(=O)c1cnccn1)CC2 (centres undefined): -2.4

Give cytotoxicity at 10 µM for each listed item.
1. CCN1C(=O)CCC12CCC(NC(=O)NCc1cccnc1)CC2 (centres undefined)
2. OCCN(Cc1nc(-c2ccc3c(c2)OCO3)no1)Cc1cccs1
3. CC(C)(C)c1ccc2c(c1)CCN2C(=O)c1[nH]c(=O)[nH]c(=O)c1N
4. N#Cc1cc2c(nc1SCc1cc(O)nc(O)n1)CCCCC2
5. COc1cc(CN2CCCCCC2c2cccs2)cc(OC)c1O (centres undefined)

Key:
-104
-0.191
7.22
4.97
8.6
